settings: octanol/water
Description: Partition coefficient of cation (logD)
Metric name: logD

Recorded results for 5 compounds are shown here.
• CO[C@]12CC[C@@]3(C[C@@H]1[C@](C)(O)C(C)(C)C)[C@H]1Cc4ccc(O)c5c4[C@@]3(CCN1CC1CC1)[C@H]2O5 [BUPRENORPHINE] = 0.45
• COc1ccc2c3c1O[C@H]1[C@@H](O)C=C[C@H]4[C@@H](C2)NCC[C@@]341 [NORCODEINE] = < -2
• CN1CC[C@]23c4c5ccc(O[C@@H]6O[C@H](C(=O)O)[C@@H](O)[C@H](O)[C@H]6O)c4O[C@H]2[C@@H](O)C=C[C@H]3[C@H]1C5 [MORPHINE 3-GLUCURONIDE] = < -2
• COc1ccc2c3c1O[C@H]1[C@@H](O)C=C[C@H]4[C@@H](C2)N(C)CC[C@@]341 [CODEINE] = < -2
• CC(=O)Oc1ccc2c3c1O[C@H]1[C@@H](OC(C)=O)C=C[C@H]4[C@@H](C2)N(C)CC[C@@]341 [DIACETYLMORPHINE] = -0.94

Okay, now this compound:
Request: Recorded logD of CC(=O)O[C@H]1C=C[C@H]2[C@H]3Cc4ccc(O)c5c4[C@@]2(CCN3C)[C@H]1O5 , please.
Response: < -2

* * *

Recorded pKa, one value per entry.
test: physchem
// return a plain number; no unit text

* COc1ccc2c3c1O[C@H]1[C@@H](O)C=C[C@H]4[C@@H](C2)NCC[C@@]341 | 9.23
* CC(=O)O[C@H]1C=C[C@H]2[C@H]3Cc4ccc(O)c5c4[C@@]2(CCN3C)[C@H]1O5 | 8.19

Okay, now this compound:
Request: Recorded pKa of CO[C@]12CC[C@@]3(C[C@@H]1[C@](C)(O)C(C)(C)C)[C@H]1Cc4ccc(O)c5c4[C@@]3(CCN1CC1CC1)[C@H]2O5 , please.
Response: 8.31

* * *

assay: physchem; settings: buffer, pH 7.4
Description: Log D of compound; LogD at pH 7.4
Metric name: logD
// return a plain number; no unit text

Request: Recorded logD of Cc1cc(=O)oc2cc(O[C@@H]3O[C@H](C(=O)O)[C@@H](O)[C@H](O)[C@H]3O)ccc12 , please.
Response: -1.32

* * *

experiment: Phenolic pKa of compound with […] NaCl; assay type: physicochemical
Metric name: pKa
// return a plain number; no unit text

Request: Recorded pKa of CO[C@]12CC[C@@]3(C[C@@H]1[C@](C)(O)C(C)(C)C)[C@H]1Cc4ccc(O)c5c4[C@@]3(CCN1CC1CC1)[C@H]2O5 , please.
Response: 9.62

* * *

experiment: physchem; settings: octanol/water
Description: Partition coefficient of anion (logD)
Metric name: logD
// return a plain number; no unit text

• CN1CC[C@]23c4c5ccc(O[C@@H]6O[C@H](C(=O)O)[C@@H](O)[C@H](O)[C@H]6O)c4O[C@H]2[C@@H](O)C=C[C@H]3[C@H]1C5 [MORPHINE 3-GLUCURONIDE] = -1.45
• CC(=O)O[C@H]1C=C[C@H]2[C@H]3Cc4ccc(O)c5c4[C@@]2(CCN3C)[C@H]1O5 = -0.42
• Cc1cc(=O)oc2cc(O[C@@H]3O[C@H](C(=O)O)[C@@H](O)[C@H](O)[C@H]3O)ccc12 = -1.3

Okay, now this compound:
Request: Recorded logD of CO[C@]12CC[C@@]3(C[C@@H]1[C@](C)(O)C(C)(C)C)[C@H]1Cc4ccc(O)c5c4[C@@]3(CCN1CC1CC1)[C@H]2O5 , please.
Response: 3.24
